B1: PRKX (parent)
chain: KLLVVDRTRRLGNMKNGANDVKHH

Variants of: B1
Experiment: protein stability index of a GFP-peptide fusion (GPS, HEK-293T) (PSI 1-6); higher = more stable;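 note: lentivirally expressed fusions sorted by FACS into six bins by GFP to DsRed ratio, PSI derived from sequencing read proportions per bin multiplied by bin number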
Conditions: c terminus: a fixed tail appended
Readout name: protein stability index
Write the value as a bare number.

Query: Indicate its recorded protein stability index; the variant in question is KLLVVDSTRRLGNMKNGANDVKHH [R7S]
Response: 3.21

Query: Indicate its recorded protein stability index; the variant in question is KRLVVDRTRRLGNMKNGANDVKHH [L2R]
Response: 3.69

Query: Indicate its recorded protein stability index; the variant in question is KILVVDRTRRLGNMKNGANDVKHH [L2I]
Response: 2.99

Query: Indicate its recorded protein stability index; the variant in question is KLLVVDRTRRLGNKKNGANDVKHH [M14K]
Response: 3.85

Query: Indicate its recorded protein stability index; the variant in question is KLLVVDRTRRLGNMKNGANVVKHH [D20V]
Response: 2.6

Query: Indicate its recorded protein stability index; the variant in question is KLLVVDRTRRLGNMKNGANDVKHG [H24G]
Response: 2.75

Query: Indicate its recorded protein stability index; the variant in question is KLLVVDRTRRLGNMKNGANDTKHH [V21T]
Response: 3.39

Query: Indicate its recorded protein stability index; the variant in question is KLLVQDRTRRLGNMKNGANDVKHH [V5Q]
Response: 3.11

Query: Indicate its recorded protein stability index; the variant in question is KLLVVDRMRRLGNMKNGANDVKHH [T8M]
Response: 2.54

Query: Indicate its recorded protein stability index; the variant in question is ELLVVDRTRRLGNMKNGANDVKHH [K1E]
Response: 2.94

Query: Indicate its recorded protein stability index; the variant in question is KGLVVDRTRRLGNMKNGANDVKHH [L2G]
Response: 4.1

Query: Indicate its recorded protein stability index; the variant in question is KLLVVDRTRRLGNMKNGANDVAHH [K22A]
Response: 2.71

Query: Indicate its recorded protein stability index; the variant in question is LLLVVDRTRRLGNMKNGANDVKHH [K1L]
Response: 1.86

Query: Indicate its recorded protein stability index; the variant in question is KLLVVDRRRRLGNMKNGANDVKHH [T8R]
Response: 2.86

Query: Indicate its recorded protein stability index; the variant in question is KLLVVDRTRRLGNMKNGQNDVKHH [A18Q]
Response: 2.95

Query: Indicate its recorded protein stability index; the variant in question is KLLVVDRTRRLGNMKNGANDIKHH [V21I]
Response: 2.55

Query: Indicate its recorded protein stability index; the variant in question is KLLVVDRTRRLVNMKNGANDVKHH [G12V]
Response: 2.67

Query: Indicate its recorded protein stability index; the variant in question is KLLVVDYTRRLGNMKNGANDVKHH [R7Y]
Response: 2.5

Query: Indicate its recorded protein stability index; the variant in question is KLHVVDRTRRLGNMKNGANDVKHH [L3H]
Response: 4

Query: Indicate its recorded protein stability index; the variant in question is KLLVVDRTRRLGNMKNAANDVKHH [G17A]
Response: 3.05

Query: Indicate its recorded protein stability index; the variant in question is KYLVVDRTRRLGNMKNGANDVKHH [L2Y]
Response: 3.04
